Would you kindly list Cooperativity (alpha factor) for each of these molecules?
# MEASURED_ON: UniProtKB P08172
# Sequence (P08172 whole entry): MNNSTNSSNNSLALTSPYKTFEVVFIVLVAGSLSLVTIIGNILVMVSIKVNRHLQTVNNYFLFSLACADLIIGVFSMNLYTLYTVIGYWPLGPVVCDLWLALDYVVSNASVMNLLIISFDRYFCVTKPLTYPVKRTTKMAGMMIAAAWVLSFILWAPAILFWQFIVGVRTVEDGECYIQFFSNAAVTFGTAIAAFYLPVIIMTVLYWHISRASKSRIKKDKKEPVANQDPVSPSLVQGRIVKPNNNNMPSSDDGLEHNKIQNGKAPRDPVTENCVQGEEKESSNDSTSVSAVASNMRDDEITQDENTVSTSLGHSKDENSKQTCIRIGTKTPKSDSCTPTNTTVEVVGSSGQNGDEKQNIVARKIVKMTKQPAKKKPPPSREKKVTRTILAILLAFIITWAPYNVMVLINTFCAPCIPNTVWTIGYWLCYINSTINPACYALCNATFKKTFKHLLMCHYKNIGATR
# Format: cell-based
# EXPERIMENTAL_CONDITIONS: shift of acetylcholine dose-response curve (Allosteric EC50 shift); α >1 = positive cooperativity
Could you respond with only the numeric value?

Problem: Which Cooperativity (alpha factor) value belongs to `O=C(N[C@@H](C1CC1)C(F)(F)F)c1cn(-c2c(F)cc(F)cc2F)c2nc(N3CCC(CO)(CO)CC3)ccc2c1=O` ?
Solution: 23

Problem: Which Cooperativity (alpha factor) value belongs to `CC[C@H](NC(=O)c1cn(-c2c(F)cc(F)cc2F)c2nc(N3CCN(C(=O)OC)CC3)ccc2c1=O)C(F)(F)F` ?
Solution: 36

Problem: Which Cooperativity (alpha factor) value belongs to CCC(COC(F)(F)F)NC(=O)c1cn(-c2c(F)cc(F)cc2F)c2nc(N3C[C@@H](O)CC3=O)ccc2c1=O (single isomer, unassigned) [Example 412] ?
Solution: 34

Problem: Which Cooperativity (alpha factor) value belongs to CCC(NC(=O)c1cn(-c2c(F)cc(F)cc2F)c2nc(N3C[C@@H](O)CC3=O)ccc2c1=O)C(F)(F)C(F)(F)F (single isomer, unassigned) [Example 521] ?
Solution: 72

Problem: Which Cooperativity (alpha factor) value belongs to CC(C)C(NC(=O)c1cn(-c2c(F)cc(F)cc2F)c2nc(N3C[C@@H](O)CC3=O)ccc2c1=O)C(F)(F)F (single isomer, unassigned) [Example 527] ?
Solution: 61

Problem: Which Cooperativity (alpha factor) value belongs to `CC(C)C[C@H](NC(=O)c1cn(-c2c(F)cc(F)cc2F)c2nc(N3C[C@@H](O)[C@@H](O)C3)ccc2c1=O)C(F)(F)F` ?
Solution: 57
